- method description: In vitro cytotoxicity, 3T3 NRU test
- Format: cell-based
- condition label: mouse, BALB/3T3 clone A31 mouse embryo cells, 24 h incubation, 15 to 2000 μM, read-out: IC50 of Mean ± SD Cytotoxicity BALB 3T3 (CC50)
Non-standard residues stand in square brackets, D forms with d. Residues, ends and D or L forms follow the SMILES beside them. *: point of attachment. Acetyl(1,8-naphthalimido) = O=C1c2cccc3cccc(c23)C(=O)N1CC(=O)*; βAla = NCCC(=O)O
assay metric: CC50 at 24 h (mM)

- compound: "CC(C)C[C@H](NC(=O)[C@H](CCCCN)NC(=O)CCNC(=O)[C@H](CC(C)C)NC(=O)[C@H](CCCCN)NC(=O)CN1C(=O)c2cccc3cccc(c23)C1=O)C(=O)NCCC(=O)N[C@@H](CCCCN)C(=O)N[C@@H](CCCCN)C(=O)N[C@@H](CC(C)C)C(=O)NCCC(=O)N[C@@H](CCCCN)C(=O)N[C@@H](CC(C)C)C(=O)NCCC(=O)N[C@@H](CCCCN)C(N)=O [Si4, 1,8-NphtG-(KLβ-AKLβ-AK)2-NH2] ({Acetyl(1,8-naphthalimido)}-KL[βAla]KL[βAla]KKL[βAla]KL[βAla]K-NH2)"
  measured result: 1.22

* * *

- Tested on: MCF-7
- method description: Antiproliferative activity, MTT dye-reduction assay, MCF-7
- Format: cell-based, human
- condition label: MTT, 72 h; read-out: IC50 of Mean ± SD Antiproliferative Activity MCF-7
pIC50: −log10 of the molar value. Non-standard residues stand in square brackets, D forms with d. Residues, ends and D or L forms follow the SMILES beside them. *: point of attachment. Acetyl(1,8-naphthalimido) = O=C1c2cccc3cccc(c23)C(=O)N1CC(=O)*; βAla = NCCC(=O)O
Each item that follows carries a reported pIC50.
assay metric: pIC50

- compound: "CC(C)C[C@H](NC(=O)[C@H](CCCCN)NC(=O)CCNC(=O)[C@H](CC(C)C)NC(=O)[C@H](CCCCN)NC(=O)[C@H](CCCCN)NC(=O)CCNC(=O)[C@H](CC(C)C)NC(=O)[C@H](CCCCN)NC(=O)CCNC(=O)[C@H](CC(C)C)NC(=O)[C@@H](N)CCCCN)C(=O)NCCC(=O)N[C@@H](CCCCN)C(N)=O [Si5, (KLβ-AKLβ-AK)2-NH2] (H-KL[βAla]KL[βAla]KKL[βAla]KL[βAla]K-NH2)"
  target under test: "MCF-7"
  measured result: 2.90
- compound: "CC(C)C[C@H](NC(=O)[C@H](CCCCN)NC(=O)CCNC(=O)[C@H](CC(C)C)NC(=O)[C@H](CCCCN)NC(=O)CN1C(=O)c2cccc3cccc(c23)C1=O)C(=O)NCCC(=O)N[C@@H](CCCCN)C(=O)N[C@@H](CCCCN)C(=O)N[C@@H](CC(C)C)C(=O)NCCC(=O)N[C@@H](CCCCN)C(=O)N[C@@H](CC(C)C)C(=O)NCCC(=O)N[C@@H](CCCCN)C(N)=O [Si4, 1,8-NphtG-(KLβ-AKLβ-AK)2-NH2] ({Acetyl(1,8-naphthalimido)}-KL[βAla]KL[βAla]KKL[βAla]KL[βAla]K-NH2)"
  target under test: "MCF-7"
  measured result: 3.06
- compound: "CC(C)C[C@H](NC(=O)[C@H](CCCCN)NC(=O)/C=C/c1ccc(O)c(O)c1)C(=O)N[C@@H](C)C(=O)N[C@@H](CCCCN)C(=O)N[C@@H](CC(C)C)C(=O)N[C@@H](C)C(=O)N[C@@H](CCCCN)C(=O)N[C@@H](CCCCN)C(=O)N[C@@H](CC(C)C)C(=O)N[C@@H](C)C(=O)N[C@@H](CCCCN)C(=O)N[C@@H](CC(C)C)C(=O)N[C@@H](C)C(=O)N[C@@H](CCCCN)C(N)=O"
  target under test: "MCF-7"
  measured result: 4.30
- compound: "CC(C)C[C@H](NC(=O)[C@H](CCCCN)NC(=O)CN1C(=O)c2cccc3cccc(c23)C1=O)C(=O)N[C@@H](C)C(=O)N[C@@H](CCCCN)C(=O)N[C@@H](CC(C)C)C(=O)N[C@@H](C)C(=O)N[C@@H](CCCCN)C(=O)N[C@@H](CCCCN)C(=O)N[C@@H](CC(C)C)C(=O)N[C@@H](C)C(=O)N[C@@H](CCCCN)C(=O)N[C@@H](CC(C)C)C(=O)N[C@@H](C)C(=O)N[C@@H](CCCCN)C(N)=O"
  target under test: "MCF-7"
  measured result: 4.35
